- systemUnderTest: Vitamin D3 receptor (Homo sapiens)
- Sequence (P11473 whole entry): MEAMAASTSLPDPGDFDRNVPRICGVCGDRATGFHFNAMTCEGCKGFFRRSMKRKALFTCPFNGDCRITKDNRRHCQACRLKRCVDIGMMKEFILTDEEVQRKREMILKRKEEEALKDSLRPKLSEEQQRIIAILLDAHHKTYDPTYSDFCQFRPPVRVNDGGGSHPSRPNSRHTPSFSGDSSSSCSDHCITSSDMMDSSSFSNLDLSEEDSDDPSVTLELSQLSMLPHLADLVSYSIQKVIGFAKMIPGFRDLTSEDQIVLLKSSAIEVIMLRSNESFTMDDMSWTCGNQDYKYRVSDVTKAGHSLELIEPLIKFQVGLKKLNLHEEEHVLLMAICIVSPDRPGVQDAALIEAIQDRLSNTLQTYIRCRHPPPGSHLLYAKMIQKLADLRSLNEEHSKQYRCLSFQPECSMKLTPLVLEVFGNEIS
pIC50: −log10 of the molar value.
observedProperty: pIC50

{"compoundStructure": "CCn1c(C(=O)N(C)CC(=O)O)ccc1C(CC)(CC)c1ccc(OCCC(O)(CC)CC)c(C)c1", "systemUnderTest": "Vitamin D3 receptor (Homo sapiens)", "observedProperty": "pIC50", "number": 6.06}
{"compoundStructure": "CCN(CC)CCNC(=O)c1ccc(C(CC)(CC)c2ccc(OCCC(O)(CC)CC)c(C)c2)n1CC", "systemUnderTest": "Vitamin D3 receptor (Homo sapiens)", "observedProperty": "pIC50", "number": 6.57}
{"compoundStructure": "CCOc1ccc(NC(=O)c2ccc(C(CC)(CC)c3ccc(OCCC(O)(CC)CC)c(C)c3)n2CC)cc1", "systemUnderTest": "Vitamin D3 receptor (Homo sapiens)", "observedProperty": "pIC50", "number": 5.34}
{"compoundStructure": "CCn1c(C(=O)NCCCN2CCOCC2)ccc1C(CC)(CC)c1ccc(OCCC(O)(CC)CC)c(C)c1", "systemUnderTest": "Vitamin D3 receptor (Homo sapiens)", "observedProperty": "pIC50", "number": 6.39}
{"compoundStructure": "CCN(CC)CCCNC(=O)c1ccc(C(CC)(CC)c2ccc(OCCC(O)(CC)CC)c(C)c2)n1CC", "systemUnderTest": "Vitamin D3 receptor (Homo sapiens)", "observedProperty": "pIC50", "number": 6.53}

###

# reported clearance; entries follow
- experimentDescription: Clearance in Sprague-Dawley rat at 5 mg/kg, iv measured up to 48 hrs post administration by HPLC analysis
- Assay type: ADME, organism-based
- conditionSummary: in vivo

{"molecule": "CCn1c(C(=O)NCCCN2CCOCC2)ccc1C(CC)(CC)c1ccc(OCCC(O)(CC)CC)c(C)c1", "clearance": "8.17 mL/min"}
{"molecule": "CCn1c(C(=O)NC(C)CO)ccc1C(CC)(CC)c1ccc(OCC(O)C(C)(C)C)c(C)c1 (stereo not drawn)", "clearance": "6.83 mL/min"}
{"molecule": "CCN(CC)CCCNC(=O)c1ccc(C(CC)(CC)c2ccc(OCCC(O)(CC)CC)c(C)c2)n1CC", "clearance": "3.5 mL/min"}

###

- experimentDescription: Half life in Sprague-Dawley rat at 5 mg/kg, iv by HPLC analysis
- Format: ADME, organism-based
- conditionSummary: in vivo
Overview of recorded half-life for various molecules

{"molecule": "CCn1c(C(=O)NC(C)CO)ccc1C(CC)(CC)c1ccc(OCC(O)C(C)(C)C)c(C)c1 (stereo not drawn)", "half-life": "2.44 h"}
{"molecule": "CCn1c(C(=O)NCCCN2CCOCC2)ccc1C(CC)(CC)c1ccc(OCCC(O)(CC)CC)c(C)c1", "half-life": "4.75 h"}
{"molecule": "CCN(CC)CCCNC(=O)c1ccc(C(CC)(CC)c2ccc(OCCC(O)(CC)CC)c(C)c2)n1CC", "half-life": "2.97 h"}

###

- experimentDescription: AUC in Sprague-Dawley rat at 20 mg/kg, ip measured up to 48 hrs post administration by HPLC analysis
- Assay type: ADME, organism-based
- Set-up: time < 48 hr, dose 20 mg/kg, route intraperitoneal
- conditionSummary: in vivo
Entries and their AUC at 48 h values follow.
observedProperty: AUC at 48 h (ng·h/mL)

{"compound": "CCn1c(C(=O)NC(C)CO)ccc1C(CC)(CC)c1ccc(OCC(O)C(C)(C)C)c(C)c1 (stereo not drawn)", "readingUnit": "ng·h/mL", "number": 24800}
{"compound": "CCN(CC)CCCNC(=O)c1ccc(C(CC)(CC)c2ccc(OCCC(O)(CC)CC)c(C)c2)n1CC", "readingUnit": "ng·h/mL", "number": 30500}
{"compound": "CCn1c(C(=O)NCCCN2CCOCC2)ccc1C(CC)(CC)c1ccc(OCCC(O)(CC)CC)c(C)c1", "readingUnit": "ng·h/mL", "number": 25900}

###

- experimentDescription: MRT in Sprague-Dawley rat at 20 mg/kg, po by HPLC analysis
- Assay type: ADME, organism-based
- conditionSummary: in vivo
Entries and their MRT
observedProperty: MRT (h)

{"molecule": "CCN(CC)CCCNC(=O)c1ccc(C(CC)(CC)c2ccc(OCCC(O)(CC)CC)c(C)c2)n1CC", "number": 11}
{"molecule": "CCn1c(C(=O)NCCCN2CCOCC2)ccc1C(CC)(CC)c1ccc(OCCC(O)(CC)CC)c(C)c1", "number": 15.9}
{"molecule": "CCn1c(C(=O)NC(C)CO)ccc1C(CC)(CC)c1ccc(OCC(O)C(C)(C)C)c(C)c1 (stereo not drawn)", "number": 10.8}

###

- Tested on: MCF7
- experimentDescription: Induction of apoptosis in human MCF7 cells assessed as necrotic cells at 1 uM after 24 hrs by Annexin V-FITC/propidium iodide-staining based flow cytometry (reference value: 0.031%)
- Type: functional
As shown below, each of these compounds has a reported Activity value.
observedProperty: Activity (%)

{"compound": "CCn1c(C(=O)N(C)CC(=O)O)ccc1C(CC)(CC)c1ccc(OCCC(O)(CC)CC)c(C)c1", "observedProperty": "Activity", "number": 0.17}
{"compound": "CCn1c(C(=O)NC(C)CO)ccc1C(CC)(CC)c1ccc(OCC(O)C(C)(C)C)c(C)c1 (stereo not drawn)", "observedProperty": "Activity", "number": 0.15}
{"compound": "CCN(CC)CCNC(=O)c1ccc(C(CC)(CC)c2ccc(OCCC(O)(CC)CC)c(C)c2)n1CC", "observedProperty": "Activity", "number": 0.24}

###

Each record here notes measured Activity.
- Test system: MCF7
- experimentDescription: Induction of cell cycle arrest in human MCF7 cells assessed as accumulation at G0/G1 phase at 1 uM after 24 hrs by propidium iodide-staining based flow cytometry (reference value: 56.03%)
- Assay type: functional

{"compoundStructure": "CCn1c(C(=O)N(C)CC(=O)O)ccc1C(CC)(CC)c1ccc(OCCC(O)(CC)CC)c(C)c1", "systemUnderTest": "MCF7", "Activity [%]": 61.76}
{"compoundStructure": "CCN(CC)CCNC(=O)c1ccc(C(CC)(CC)c2ccc(OCCC(O)(CC)CC)c(C)c2)n1CC", "systemUnderTest": "MCF7", "Activity [%]": 68.92}
{"compoundStructure": "CCN(CC)CCCNC(=O)c1ccc(C(CC)(CC)c2ccc(OCCC(O)(CC)CC)c(C)c2)n1CC", "systemUnderTest": "MCF7", "Activity [%]": 70.15}
{"compoundStructure": "C=C1/C(=C\\C=C2/CCC[C@]3(C)[C@@H]([C@H](C)CCCC(C)(C)O)CC[C@@H]23)C[C@@H](O)C[C@@H]1O", "systemUnderTest": "MCF7", "Activity [%]": 63.49}

###

- System: MCF7
- experimentDescription: Induction of cell cycle arrest in human MCF7 cells assessed as accumulation at G0/G1 phase at 1 uM after 24 hrs by propidium iodide-staining based flow cytometry (reference value: 56.03%)
- Assay type: functional
observedProperty: Activity (%)

{"molecule": "Cc1cc(C2(c3ccc(OCC(=O)C(C)(C)C)c(C)c3)CCCCC2)ccc1OCC(=O)C(C)(C)C", "observedProperty": "Activity", "number": 59.74}
{"molecule": "CCn1c(C(=O)NCCCN2CCOCC2)ccc1C(CC)(CC)c1ccc(OCCC(O)(CC)CC)c(C)c1", "observedProperty": "Activity", "number": 70.41}
{"molecule": "CCn1c(C(=O)NC(C)CO)ccc1C(CC)(CC)c1ccc(OCC(O)C(C)(C)C)c(C)c1 (stereo not drawn)", "observedProperty": "Activity", "number": 63.03}

###

- Test system: MCF7
- experimentDescription: Antiproliferative activity against human MCF7 cells after 48 hrs by MTT assay
- Format: functional, cell-based
- conditionSummary: MCF7, 48 h
pIC50: −log10 of the molar value.
Label rule, in plain words: pIC50 of 5 and up is satisfied, under 5 is not satisfied.

{"molecule": "CCN(CC)CCCNC(=O)c1ccc(C(CC)(CC)c2ccc(OCCC(O)(CC)CC)c(C)c2)n1CC", "answerLabel": "satisfied"}
{"molecule": "CCn1c(C(=O)NCCN)ccc1C(CC)(CC)c1ccc(OCCC(O)(CC)CC)c(C)c1", "answerLabel": "satisfied"}
{"molecule": "CCn1c(C(=O)N(C)CC(=O)O)ccc1C(CC)(CC)c1ccc(OCCC(O)(CC)CC)c(C)c1", "answerLabel": "satisfied"}
{"molecule": "CCn1c(C(=O)N(C)CCO)ccc1C(CC)(CC)c1ccc(OCCC(O)(CC)CC)c(C)c1", "answerLabel": "satisfied"}
{"molecule": "C=CCN(C)C(=O)c1ccc(C(CC)(CC)c2ccc(OCCC(O)(CC)CC)c(C)c2)n1CC", "answerLabel": "not satisfied"}
{"molecule": "CCN(CC)CCNC(=O)c1ccc(C(CC)(CC)c2ccc(OCCC(O)(CC)CC)c(C)c2)n1CC", "answerLabel": "satisfied"}
{"molecule": "CCn1c(C(=O)NC(C)C(=O)O)ccc1C(CC)(CC)c1ccc(OCCC(O)(CC)CC)c(C)c1 (stereo not given)", "answerLabel": "not satisfied"}
{"molecule": "CCn1c(C(=O)NCCN(C)C)ccc1C(CC)(CC)c1ccc(OCCC(O)(CC)CC)c(C)c1", "answerLabel": "satisfied"}
{"molecule": "CCn1c(C(=O)NCCCN(C)C)ccc1C(CC)(CC)c1ccc(OCCC(O)(CC)CC)c(C)c1", "answerLabel": "satisfied"}
{"molecule": "CCn1c(C(=O)Oc2ccc(CC(=O)OC)cc2)ccc1C(CC)(CC)c1ccc(OCCC(O)(CC)CC)c(C)c1", "answerLabel": "not satisfied"}
{"molecule": "CCn1c(C(=O)NCC#N)ccc1C(CC)(CC)c1ccc(OCCC(O)(CC)CC)c(C)c1", "answerLabel": "not satisfied"}
{"molecule": "CCn1c(C(=O)N(CCC#N)CCC#N)ccc1C(CC)(CC)c1ccc(OCCC(O)(CC)CC)c(C)c1", "answerLabel": "not satisfied"}
{"molecule": "CCn1c(C(=O)Nc2cccc(C(F)(F)F)c2)ccc1C(CC)(CC)c1ccc(OCCC(O)(CC)CC)c(C)c1", "answerLabel": "not satisfied"}
{"molecule": "CCn1c(C(=O)NC(C)CO)ccc1C(CC)(CC)c1ccc(OCC(O)C(C)(C)C)c(C)c1 (stereo not given)", "answerLabel": "satisfied"}
{"molecule": "CCOc1ccc(NC(=O)c2ccc(C(CC)(CC)c3ccc(OCCC(O)(CC)CC)c(C)c3)n2CC)cc1", "answerLabel": "not satisfied"}
{"molecule": "CCn1c(C(=O)NC(CO)CCO)ccc1C(CC)(CC)c1ccc(OCCC(O)(CC)CC)c(C)c1 (stereo not given)", "answerLabel": "not satisfied"}
{"molecule": "CCOC(=O)CN(C)C(=O)c1ccc(C(CC)(CC)c2ccc(OCCC(O)(CC)CC)c(C)c2)n1CC", "answerLabel": "satisfied"}
